# TEST_DESCRIPTION: Metabolic stability in rat liver microsome assessed as compound remaining at 20 uM measured after 32 mins in presence of NADP and GSH by HPLC analysis
# Format: ADME
# CONDITIONS: liver microsomes, read-out: Stability
QUANTITY_NAME: remaining at 32 min, 20 µM (%)
Answers are plain numbers, in %.

Would you please look over these solved cases?
>>> df
                                   compound  quantitative_result
0  Cn1c([N+](=O)[O-])cnc1C(=O)N1CCS(=O)(=O)CC1                  100
1  CSc1ccc(NC(=O)c2ncc([N+](=O)[O-])[nH]2)cc1                 18.4
2      CSc1ccc(NCc2ncc([N+](=O)[O-])n2C)cc1                    0
3  COc1ccc(Cn2ccn3cc([N+](=O)[O-])nc3c2=O)cc1                  100
4  CSc1ccc(NC(=O)c2ncc([N+](=O)[O-])n2C)cc1                    0

Batch request: remaining at 32 min, 20 µM per item, same order as input.
1. CSc1ccc(OCc2ncc([N+](=O)[O-])n2C)cc1 [FEXINIDAZOLE]
2. CSc1ccc(OCC2Cn3cc([N+](=O)[O-])nc3O2)cc1 (racemic)
3. Cn1c([N+](=O)[O-])cnc1COc1ccc([S+](C)[O-])cc1 (stereo not given) [FEXINIDAZOLE SULFOXIDE]
4. CSc1ccc(OCc2ncc(C#N)n2C)cc1
5. CS(=O)(=O)c1ccc(OCC2Cn3cc([N+](=O)[O-])nc3O2)cc1 (stereo not given)
6. CCc1ccc(OCc2ncc([N+](=O)[O-])n2C)cc1

[0, 55.8, 100, 8.2, 100, 0]

Hey, quick one: what's remaining at 32 min, 20 µM for each of these?
1. CSc1ccc(Cn2ccn3cc([N+](=O)[O-])nc3c2=O)cc1
2. CSc1ccc(CCc2ncc([N+](=O)[O-])n2C)cc1
3. CSc1ccc(OC[C@H]2Cn3cc([N+](=O)[O-])nc3O2)cc1
4. Cn1c([N+](=O)[O-])cnc1CCc1ccc(S(C)(=N)=O)cc1 (stereo not given)

1: 93.1; 2: 0; 3: 64.7; 4: 100

* * *

# ASSAY_TARGET: Voltage-gated inwardly rectifying potassium channel KCNH2 (Homo sapiens)
# Sequence (Q12809 whole entry): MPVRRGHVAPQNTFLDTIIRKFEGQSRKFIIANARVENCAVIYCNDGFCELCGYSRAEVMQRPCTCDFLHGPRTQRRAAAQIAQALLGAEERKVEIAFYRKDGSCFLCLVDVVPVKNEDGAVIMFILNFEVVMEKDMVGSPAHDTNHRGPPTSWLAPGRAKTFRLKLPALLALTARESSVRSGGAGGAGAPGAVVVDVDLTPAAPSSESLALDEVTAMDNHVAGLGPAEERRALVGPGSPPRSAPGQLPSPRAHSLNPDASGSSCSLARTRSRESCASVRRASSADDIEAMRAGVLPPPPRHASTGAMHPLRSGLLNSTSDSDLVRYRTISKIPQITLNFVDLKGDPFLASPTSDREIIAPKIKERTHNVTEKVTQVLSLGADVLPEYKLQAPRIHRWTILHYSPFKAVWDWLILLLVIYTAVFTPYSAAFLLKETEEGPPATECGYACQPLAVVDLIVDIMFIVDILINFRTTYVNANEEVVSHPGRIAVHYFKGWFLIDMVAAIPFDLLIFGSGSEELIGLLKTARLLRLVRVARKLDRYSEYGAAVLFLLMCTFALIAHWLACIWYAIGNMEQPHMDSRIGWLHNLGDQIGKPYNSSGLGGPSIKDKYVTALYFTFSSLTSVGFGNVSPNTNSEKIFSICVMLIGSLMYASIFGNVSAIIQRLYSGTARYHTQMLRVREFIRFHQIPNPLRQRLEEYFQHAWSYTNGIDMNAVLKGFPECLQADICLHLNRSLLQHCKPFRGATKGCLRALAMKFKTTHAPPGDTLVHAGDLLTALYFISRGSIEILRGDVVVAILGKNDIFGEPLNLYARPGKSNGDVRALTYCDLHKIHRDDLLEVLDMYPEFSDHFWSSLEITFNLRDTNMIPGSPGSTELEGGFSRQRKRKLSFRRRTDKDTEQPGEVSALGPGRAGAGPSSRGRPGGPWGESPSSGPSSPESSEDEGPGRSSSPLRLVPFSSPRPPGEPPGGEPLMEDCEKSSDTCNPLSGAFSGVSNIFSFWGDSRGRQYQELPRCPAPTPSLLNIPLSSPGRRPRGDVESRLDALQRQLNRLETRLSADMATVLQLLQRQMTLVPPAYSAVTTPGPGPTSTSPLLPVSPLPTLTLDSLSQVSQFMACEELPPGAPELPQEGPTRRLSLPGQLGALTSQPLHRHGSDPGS
# TEST_DESCRIPTION: Inhibition of human ERG stably overexpressed in HEK293 cells incubated for 30 mins by FLIPR assay
# Assay type: toxicity, cell-based
# CONDITIONS: human, hek293, 0.5 h; time 30 min
QUANTITY_NAME: IC25

Consider the following illustrative entries.
>>> df
                                   compound    result
0  Cn1c([N+](=O)[O-])cnc1COc1ccc([S+](C)[O-])cc1 (centres undefined) [FEXINIDAZOLE SULFOXIDE]  > 100 µM
1  Cn1c([N+](=O)[O-])cnc1COc1ccc(S(C)(=N)=O)cc1 (centres undefined)  > 100 µM
2  CSc1ccc(Cn2ccn3cc([N+](=O)[O-])nc3c2=O)cc1    > 2 µM

# input for lookup
# returns recorded IC25 (system: Voltage-gated inwardly rectifying potassium channel KCNH2 (Homo sapiens)) for Cn1c([N+](=O)[O-])cnc1C(=O)N1CCS(=O)(=O)CC1
> 6.2 µM
